Tested on: D(4) dopamine receptor (Homo sapiens)
Sequence (P21917 whole entry): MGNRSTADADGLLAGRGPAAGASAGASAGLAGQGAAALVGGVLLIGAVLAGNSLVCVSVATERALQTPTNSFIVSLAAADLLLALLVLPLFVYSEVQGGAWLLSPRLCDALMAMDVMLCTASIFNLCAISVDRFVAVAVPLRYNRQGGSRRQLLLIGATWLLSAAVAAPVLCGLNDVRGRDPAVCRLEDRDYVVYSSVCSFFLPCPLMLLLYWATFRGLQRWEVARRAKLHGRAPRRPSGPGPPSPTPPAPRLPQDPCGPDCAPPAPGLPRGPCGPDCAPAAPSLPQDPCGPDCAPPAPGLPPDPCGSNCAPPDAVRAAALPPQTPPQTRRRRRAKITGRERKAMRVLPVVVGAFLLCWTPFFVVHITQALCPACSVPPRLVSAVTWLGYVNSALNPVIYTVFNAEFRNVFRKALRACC
Measure: Ki (nM)
// units = nM; emit number, no label

*Q* Give Ki (D(4) dopamine receptor (Homo sapiens)) of the following compound: COc1cc(NC(=O)C2CC2)c(Cl)cc1C(=O)NC1CCN(Cc2ccccc2)C1 (stereo unspecified)
*A* 2.1

###

Tested on: Alpha-1A adrenergic receptor (Homo sapiens)
Sequence (P35348 whole entry): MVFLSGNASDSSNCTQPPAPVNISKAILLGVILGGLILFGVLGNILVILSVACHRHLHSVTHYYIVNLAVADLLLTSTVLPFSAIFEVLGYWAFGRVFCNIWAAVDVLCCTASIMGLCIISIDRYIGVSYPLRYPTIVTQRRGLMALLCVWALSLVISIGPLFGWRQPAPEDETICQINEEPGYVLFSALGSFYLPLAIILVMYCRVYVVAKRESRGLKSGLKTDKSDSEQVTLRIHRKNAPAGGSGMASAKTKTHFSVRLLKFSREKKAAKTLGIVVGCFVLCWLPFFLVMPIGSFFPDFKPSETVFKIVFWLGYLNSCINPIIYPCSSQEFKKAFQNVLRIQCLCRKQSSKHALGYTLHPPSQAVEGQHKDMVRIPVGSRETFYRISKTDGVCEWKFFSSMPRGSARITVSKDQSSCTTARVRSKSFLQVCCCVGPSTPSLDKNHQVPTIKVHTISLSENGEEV
Measure: pKi
The read-out pKi is expressed as -log10 of concentration in moles per litre.

*Q* Give pKi (Alpha-1A adrenergic receptor (Homo sapiens)) of the following compound: COCC1=C(C(=O)OC)[C@H](c2ccc(F)c(F)c2)C(C(=O)NCCCN2CCC(c3ccccn3)CC2)C(=O)N1 (stereo partly specified)
*A* 9.44

###

Tested on: Muscarinic acetylcholine receptor M1 (Homo sapiens, UniProt P11229)
Sequence (P11229 whole entry): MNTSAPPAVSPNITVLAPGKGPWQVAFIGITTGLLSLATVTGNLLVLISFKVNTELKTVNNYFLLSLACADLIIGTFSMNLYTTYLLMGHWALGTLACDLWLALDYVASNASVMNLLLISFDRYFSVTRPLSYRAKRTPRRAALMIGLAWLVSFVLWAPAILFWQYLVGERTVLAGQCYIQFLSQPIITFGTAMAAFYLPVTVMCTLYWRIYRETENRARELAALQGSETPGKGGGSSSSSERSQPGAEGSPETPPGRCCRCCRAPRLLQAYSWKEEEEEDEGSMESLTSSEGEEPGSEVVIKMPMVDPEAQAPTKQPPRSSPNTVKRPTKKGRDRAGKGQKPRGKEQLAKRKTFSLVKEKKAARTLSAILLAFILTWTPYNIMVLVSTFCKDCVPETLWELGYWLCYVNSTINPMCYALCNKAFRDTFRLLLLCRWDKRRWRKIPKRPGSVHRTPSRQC
Measure: pKi
The read-out pKi is expressed as -log10 of concentration in moles per litre.

*Q* Can you share its pKi? I mean this compound: `Cc1cc(NCCN2C3CCCC2CC3)nnc1-c1ccccc1`
*A* 7.30

*Q* Can you share its pKi? I mean this compound: `Cc1cc(NCCN2C3CCCC2CC3)nnc1-c1ccccc1O`
*A* 8.52

*Q* Can you share its pKi? I mean this compound: `Cc1cc(NCCN2CCOCC2)nnc1-c1ccccc1`
*A* 6.26

*Q* Can you share its pKi? I mean this compound: Cc1cc(-c2ccccc2)nnc1NCCN1CCOCC1 [MINAPRINE]
*A* 4.77

###

Target sequence: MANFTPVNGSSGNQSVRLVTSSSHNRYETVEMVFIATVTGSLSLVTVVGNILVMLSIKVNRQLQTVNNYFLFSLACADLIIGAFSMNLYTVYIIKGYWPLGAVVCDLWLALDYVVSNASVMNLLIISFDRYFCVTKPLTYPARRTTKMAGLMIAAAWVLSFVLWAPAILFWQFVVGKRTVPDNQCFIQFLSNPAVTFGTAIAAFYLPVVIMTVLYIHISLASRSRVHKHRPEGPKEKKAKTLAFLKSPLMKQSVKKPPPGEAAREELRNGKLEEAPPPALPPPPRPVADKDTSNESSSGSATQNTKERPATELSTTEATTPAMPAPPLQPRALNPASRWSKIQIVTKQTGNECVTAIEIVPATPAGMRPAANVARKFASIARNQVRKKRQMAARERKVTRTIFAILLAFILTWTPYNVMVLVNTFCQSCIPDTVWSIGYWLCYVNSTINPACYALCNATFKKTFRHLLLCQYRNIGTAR
Measure: pKi
The read-out pKi is expressed as -log10 of concentration in moles per litre.

*Q* Can you share its pKi? I mean this molecule: CN(C)CCOC1=Cc2ccccc2Sc2ccc(Cl)cc21 [ZOTEPINE]
*A* 6.26
